Just for reference, patent US20180235916A1 is where these values come from.

# Assay protocol: Solubility of test compounds (stock solutions)
# Condition notes: water

>  <Structure as smiles>
Cc1ncc2n1-c1ccc(Cl)cc1C(c1ccccc1F)=NC2

>  <solubility>
6.25 mM

$$$$
